All figures here come from patent US8455665B2.

# Target or system: SERT (Homo sapiens, UniProt P31645)
# Sequence (P31645 whole entry): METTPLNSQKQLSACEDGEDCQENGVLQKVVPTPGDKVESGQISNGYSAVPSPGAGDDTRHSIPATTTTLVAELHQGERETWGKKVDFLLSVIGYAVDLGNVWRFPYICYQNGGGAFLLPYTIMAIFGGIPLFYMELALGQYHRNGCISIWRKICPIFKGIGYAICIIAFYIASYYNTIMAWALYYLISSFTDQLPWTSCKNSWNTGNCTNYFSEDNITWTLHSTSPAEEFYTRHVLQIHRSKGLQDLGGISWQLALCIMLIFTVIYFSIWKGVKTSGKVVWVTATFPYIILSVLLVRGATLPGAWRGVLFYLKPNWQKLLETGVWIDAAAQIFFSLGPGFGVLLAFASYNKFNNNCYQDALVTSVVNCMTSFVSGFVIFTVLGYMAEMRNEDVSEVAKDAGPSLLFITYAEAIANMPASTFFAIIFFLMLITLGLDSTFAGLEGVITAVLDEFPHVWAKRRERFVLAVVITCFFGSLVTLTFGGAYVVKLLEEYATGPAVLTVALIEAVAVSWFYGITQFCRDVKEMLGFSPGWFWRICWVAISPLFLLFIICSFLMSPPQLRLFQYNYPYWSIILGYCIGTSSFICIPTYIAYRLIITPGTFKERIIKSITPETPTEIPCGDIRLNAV
# Assay protocol: hSERT membrane radioligand binding assay (3H-citalopram)
# Parameters: expressed in transfected cells; host or cells: HEK-293
# Condition description: hSERT membranes (HEK-293), 1.0 nM 3H-citalopram; read-out: SERT pKi (converted)
Measurement label: Ki

* COC[C@H](Oc1ccc(Cl)cc1C)[C@H]1CCNC1 [Example 4-25] | ≤ 10 nM
* CC(C)OC[C@H](Oc1cccc(C(F)(F)F)c1)[C@@H]1CCNC1 [Example 9-2] | ≤ 100 nM
* COC[C@@H](Oc1cccc(F)c1Cl)[C@H]1CCNC1 [Example 4-13] | ≤ 10 nM
* COCC(Oc1cc(Cl)cc(Cl)c1)C1CCNC1 (stereo not shown) [Example 4-29] | ≤ 10 nM
